Endpoint: IC50. System: HLA A*0301 (Homo sapiens, UniProt P04439). Items follow.
Where a SMILES comes first, the peptide text is derived from it.
quantity_name: IC50 (nM)

compound="CC(C)C[C@H](NC(=O)[C@H](CC(=O)O)NC(=O)[C@H](CC(C)C)NC(=O)[C@H](CO)NC(=O)[C@@H]1CCCN1C(=O)[C@H](CCCCN)NC(=O)[C@H](CC(N)=O)NC(=O)[C@H](CC(C)C)NC(=O)[C@H](CC(C)C)NC(=O)[C@@H](N)CCCCN)C(=O)O (H-KLLNKPSLDL-OH)" reading_unit=nM recorded_measurement=2360
compound="CC[C@H](C)[C@H](N)C(=O)N[C@@H](CC(C)C)C(=O)N[C@H](C(=O)N[C@@H](CO)C(=O)N[C@@H](CCCNC(=N)N)C(=O)N[C@@H](CC(C)C)C(=O)N[C@H](C(=O)N[C@@H](CC(C)C)C(=O)N[C@@H](CCCCN)C(=O)O)[C@@H](C)O)[C@@H](C)CC (H-ILISRLTLK-OH)" reading_unit=nM recorded_measurement=220
compound="CC[C@H](C)[C@H](NC(=O)[C@H](CO)NC(=O)[C@H](CCCNC(=N)N)NC(=O)[C@H](CC(N)=O)NC(=O)[C@H](CC(N)=O)NC(=O)[C@H](CC(C)C)NC(=O)[C@@H](N)CCCNC(=N)N)C(=O)N[C@@H](Cc1ccc(O)cc1)C(=O)N[C@@H](CCCCN)C(=O)O (H-RLNNRSIYK-OH)" reading_unit=nM recorded_measurement=224
compound="CC(C)[C@H](NC(=O)[C@H](CC(N)=O)NC(=O)[C@@H](NC(=O)[C@@H](N)Cc1ccccc1)[C@@H](C)O)C(=O)N[C@@H](CC(N)=O)C(=O)N[C@@H](CCC(N)=O)C(=O)N[C@@H](Cc1ccccc1)C(=O)N[C@@H](Cc1ccccc1)C(=O)N[C@@H](CCCCN)C(=O)O (H-FTNVNQFFK-OH)" reading_unit=nM recorded_measurement=921
compound="CC[C@H](C)[C@H](NC(=O)[C@@H](N)Cc1ccccc1)C(=O)N[C@@H](CC(=O)O)C(=O)N1CCC[C@H]1C(=O)N[C@@H](CCC(N)=O)C(=O)N[C@H](C(=O)N[C@@H](CCC(=O)O)C(=O)N[C@@H](CCSC)C(=O)N[C@@H](Cc1ccccc1)C(=O)N[C@@H](CCCCN)C(=O)O)[C@@H](C)O (H-FIDPQTEMFK-OH)" reading_unit=nM recorded_measurement=8100
compound="CC[C@H](C)[C@H](NC(=O)[C@H](CC(=O)O)NC(=O)[C@@H](NC(=O)[C@@H](N)CO)[C@@H](C)O)C(=O)N[C@H](C(=O)N[C@@H](Cc1ccccc1)C(=O)N[C@@H](CC(C)C)C(=O)N[C@H](C(=O)N[C@@H](CCSC)C(=O)N[C@@H](CCCCN)C(=O)O)[C@@H](C)O)[C@@H](C)CC (H-STDIIFLTMK-OH)" reading_unit=nM recorded_measurement=8780
compound="CC(C)C[C@H](NC(=O)[C@H](Cc1ccccc1)NC(=O)[C@@H](NC(=O)[C@H](CCCCN)NC(=O)[C@H](CCCCN)NC(=O)[C@H](CO)NC(=O)[C@@H](N)CCCNC(=N)N)[C@@H](C)O)C(=O)N[C@H](C(=O)N[C@@H](CCCCN)C(=O)O)C(C)C (H-RSKKTFLVK-OH)" reading_unit=nM recorded_measurement=409

Each recorded value in this set is attributed to paper PMC8138313.
